Study target: recombinant human SAE enzyme (Homo sapiens (Human))
Sequence (Q9UBT2 whole entry): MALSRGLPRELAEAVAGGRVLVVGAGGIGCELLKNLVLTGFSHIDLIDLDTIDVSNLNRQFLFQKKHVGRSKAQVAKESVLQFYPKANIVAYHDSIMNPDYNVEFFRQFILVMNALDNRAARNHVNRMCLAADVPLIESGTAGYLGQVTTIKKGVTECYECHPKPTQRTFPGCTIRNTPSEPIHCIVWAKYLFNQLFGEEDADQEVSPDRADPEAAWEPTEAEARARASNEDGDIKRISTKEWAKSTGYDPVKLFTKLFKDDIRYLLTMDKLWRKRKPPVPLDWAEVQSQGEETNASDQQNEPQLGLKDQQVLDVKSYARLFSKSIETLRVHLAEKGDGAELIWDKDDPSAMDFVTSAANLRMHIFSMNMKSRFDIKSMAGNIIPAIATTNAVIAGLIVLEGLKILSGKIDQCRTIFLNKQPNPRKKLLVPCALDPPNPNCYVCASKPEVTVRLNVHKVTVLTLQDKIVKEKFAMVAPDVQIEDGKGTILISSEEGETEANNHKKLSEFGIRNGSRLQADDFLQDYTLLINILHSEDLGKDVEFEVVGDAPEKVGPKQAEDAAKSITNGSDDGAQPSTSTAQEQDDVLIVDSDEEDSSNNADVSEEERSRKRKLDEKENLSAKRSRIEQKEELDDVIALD
Sequence (Q9UBE0 whole entry partner): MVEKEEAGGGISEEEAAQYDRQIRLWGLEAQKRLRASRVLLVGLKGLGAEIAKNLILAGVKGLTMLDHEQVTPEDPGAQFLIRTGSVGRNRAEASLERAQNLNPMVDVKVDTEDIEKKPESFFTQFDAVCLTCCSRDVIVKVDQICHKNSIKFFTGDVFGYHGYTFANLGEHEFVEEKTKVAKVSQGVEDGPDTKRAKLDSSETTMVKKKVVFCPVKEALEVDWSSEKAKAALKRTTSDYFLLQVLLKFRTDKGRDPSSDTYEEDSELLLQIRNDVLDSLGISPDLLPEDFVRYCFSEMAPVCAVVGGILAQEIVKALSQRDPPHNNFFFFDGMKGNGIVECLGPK
Protocol notes: SAE HTRF enzyme assay
Assay type: biochemical
Test settings: Concentration 0.111 μM; read-out: Percent Inhibition
Readout label: inhibition at 0.111 µM (%)
One number for each entry, in %.

Cc1oc(C(=O)c2cncnc2N[C@@H]2C[C@H](COS(N)(=O)=O)[C@@H](O)[C@@H]2F)cc1Cc1cccc(Br)c1    99
COc1ccccc1OCc1csc(C(=O)c2cncnc2N[C@@H]2C[C@H](COS(N)(=O)=O)[C@@H](O)C2)c1    98
NS(=O)(=O)OC[C@H]1C[C@@H](Nc2ncncc2C(=O)c2cc(CC3=CCSCC3)cs2)C[C@@H]1O    86
NS(=O)(=O)OC[C@H]1C[C@@H](Nc2ncncc2C(=O)c2cc(Cn3ccc4ccccc43)cs2)C[C@@H]1O    97
Cc1sc(C(=O)c2cncnc2N[C@@H]2C[C@H](COS(N)(=O)=O)[C@@H](O)C2)cc1[C@H]1OCCc2ccc(Cl)cc21 [I-257a]    74
Cc1sc(C(=O)c2cncnc2N[C@@H]2C[C@H](COS(N)(=O)=O)[C@@H](O)C2)cc1[C@H]1OCCc2ccccc21 [I-256a]    94

Here's the next entry for you.
Observed inhibition at 0.111 µM, recombinant human SAE enzyme (Homo sapiens (Human)), NS(=O)(=O)OC[C@H]1C[C@@H](Nc2ncncc2C(=O)c2cc(CN3CCN(c4ccccc4)CC3)cs2)C[C@@H]1O : 18
